Target: hOX2R (Homo sapiens)
Construct: expressed in transfected cells; host or cells: CHO cells (G418 selection)
Assay: hOX2R IPone assay (orexin receptor agonism)
Format: cell-based
Conditions: maximal activation, IPone readout
ATTRIBUTE MEASURED: hOX2R_Ipone max %act (%)

> print(dat)
                                   compound  recorded.value
1  CCN1C(=O)N[C@@H](C(F)(F)F)CCCCOc2nc(cn3ccnc23)-c2cc(ncc2OC)C1C(F)(F)F (single isomer, unassigned) [Example 39A]            97.7
2  CCN1C(=O)N[C@@H](CCC(F)(F)F)CCCCCOc2nc(cn3ccnc23)-c2ccnc(c2)[C@H]1C           100.2
3  CCN1C(=O)N[C@@H](CCC(F)(F)F)CCCCOc2nc(nn3ccnc23)-c2cc(cnc2OC)[C@H]1C            99.9
4  CCN1C(=O)NC(CC2(F)CC2)CCCCCOc2nc(cn3ccnc23)-c2cc(ncc2OC)[C@H]1C (stereo partly shown)           100.2
5  CCN1C(=O)N[C@@H](CCC(F)(F)F)CCCCCOc2cc(nn3ccnc23)-c2cc(cnc2OC)[C@H]1C            99.2
6  CCN1C(=O)NC(CC2CC2)CCCCCOc2nc(cn3ccnc23)-c2cc(ncc2OC)[C@H]1C (single isomer, unassigned) [Example 55A]            99.2
7  CCN1C(=O)NCCCCCCCOc2nc(cn3ccnc23)-c2cc(ncc2OC)[C@H]1C           100.5

----------
Target: hOX2R (Homo sapiens)
Construct: expressed in transfected cells; host or cells: CHO cells (G418 selection)
Assay: hOX2R IPone assay (orexin receptor agonism)
Assay type: cell-based
Settings: maximal activation, IPone readout
ATTRIBUTE MEASURED: hOX2R_Ipone max %act (%)

> print(dat)
                                   compound           test.target    attribute.measured  recorded.value
1  CCN1C(=O)NC(C)CCCCCOc2nc(cn3ccnc23)-c2cc(ncc2OC)[C@H]1C (single isomer, unassigned) [Example 9B]  hOX2R (Homo sapiens)  hOX2R_Ipone max %act           100.9
2  CCN1C(=O)NC(CCC(F)(F)F)CCCCCOc2nc(cn3ccnc23)-c2cc(ncc2Cl)[C@H]1C (stereo partly shown)  hOX2R (Homo sapiens)  hOX2R_Ipone max %act           103.1
3  CCN1C(=O)NC(CCC(F)(F)F)COCCCOc2nc(cn3ccnc23)-c2cc(ncc2OC)[C@H]1C (single isomer, unassigned) [Example 21B]  hOX2R (Homo sapiens)  hOX2R_Ipone max %act           100.3
4  CCN1C(=O)NC(CCC(F)(F)F)C(C)/C=C\COc2nc(cn3ccnc23)-c2cccc(c2)[C@H]1C (single isomer, unassigned) [Example 41B]  hOX2R (Homo sapiens)  hOX2R_Ipone max %act           100.4
5  CCN1C(=O)NCCCOCCOc2nc(cn3ccnc23)-c2cc(ncc2OC)[C@H]1C  hOX2R (Homo sapiens)  hOX2R_Ipone max %act           100.6
6  CCN1C(=O)NCCC2CCC(C2)Oc2nc(cn3ccnc23)-c2cccc(c2)[C@H]1C (single isomer, unassigned)  hOX2R (Homo sapiens)  hOX2R_Ipone max %act            92.5
7  CCN1C(=O)N[C@@H](CCC(F)(F)F)CCCCCOc2nc(nn3ccnc23)-c2cccc(c2)[C@H]1C  hOX2R (Homo sapiens)  hOX2R_Ipone max %act           100.6

----------
Biological target: hOX2R (Homo sapiens, UniProt O43614)
Assay: hOX2R IPone assay (orexin receptor agonism)
Details: orexin receptor agonist, IPone readout; read-out: hOX2R_IPone EC50
ATTRIBUTE MEASURED: EC50 (nM)

Please review the entries below; each comes with its answer.
> print(dat)
                                   compound  unit.of.measure  recorded.value
1  CCN1C(=O)NC(CC2CCCC2)CCCCCOc2nc(cn3ccnc23)-c2cc(ncc2OC)[C@H]1C (single isomer, unassigned) [Example 65A]               nM            13.5
2  CCN1C(=O)NC(CC(F)F)CCCCCOc2nc(cn3ccnc23)-c2cc(ncc2OC)[C@H]1C (stereo partly shown) [Example 186]               nM            1.02

1 = CCN1C(=O)NC(C2CC2(F)F)CCCCCOc2nc(cn3ccnc23)-c2cc(ncc2OC)[C@H]1C (stereo partly shown) [Example 192]
2 = CCN1C(=O)NC(COC)CCCCCOc2nc(cn3ccnc23)-c2cc(ncc2OC)[C@H]1C (single isomer, unassigned) [Example 58B]
Between the entries labelled 1 and 2 , which has a larger EC50 value on record? Refer to your chosen entry by its label in the reply.
2
(2: 0.9 nM, 1: 0.46 nM)

----------
Target: hOX2R (Homo sapiens, UniProt O43614)
Construct: expressed in transfected cells; host or cells: CHO cells (G418 selection)
Assay: hOX2R IPone assay (orexin receptor agonism)
Assay type: cell-based
Conditions: maximal activation, IPone readout
ATTRIBUTE MEASURED: hOX2R_Ipone max %act (%)

> print(dat)
                                   compound  unit.of.measure  recorded.value
1  CCN1C(=O)N[C@@H](CCC(F)(F)F)CCCCCOc2nc(cn3ccnc23)-c2cc(c(C)cn2)C1C (single isomer, unassigned) [Example 92B]                %            99.1
2  CCN1C(=O)NC(CCC(F)(F)F)CCC(F)(F)CCOc2nc(cn3ccnc23)-c2cc(ncc2OC)[C@H]1C (single isomer, unassigned) [Example 121B]                %           100.7
3  CCN1C(=O)NC(CCC(C)(F)F)CCCCCOc2nc(c(C)n3ncnc23)-c2cc(ncc2OC)C1C (stereo not drawn)                %             101

----------
Biological target: hOX2R (Homo sapiens, UniProt O43614)
Assay: hOX2R IPone assay (orexin receptor agonism)
Conditions: orexin receptor agonist, IPone readout; read-out: hOX2R_IPone EC50
ATTRIBUTE MEASURED: EC50 (nM)

> print(dat)
                                   compound  recorded.value
1  CCN1C(=O)NC2CC2CCCCOc2cn3ccnc3c(n2)-c2cc(ncc2OC)C1C (stereo not shown) [Example 145]             4.4

I = CCN1C(=O)NC(CC#N)CCCCCOc2nc(cn3ccnc23)-c2cc(ncc2OC)[C@H]1C (stereo partly shown) [Example 194]
II = CCN1C(=O)NCCc2nc(no2)COc2nc(cn3ccnc23)-c2cccc(c2)[C@H]1C [Example 24]
III = CCN1C(=O)NC(CCCOC)CCCCCOc2nc(cn3ccnc23)-c2cc(ncc2OC)[C@H]1C (single isomer, unassigned) [Example 60B]
Order field: EC50 | Direction: descending (largest first) Give the order by naming the labels one after another as requested.
II, III, I

----------
Target: hOX2R (Homo sapiens)
Sequence (O43614 1-444): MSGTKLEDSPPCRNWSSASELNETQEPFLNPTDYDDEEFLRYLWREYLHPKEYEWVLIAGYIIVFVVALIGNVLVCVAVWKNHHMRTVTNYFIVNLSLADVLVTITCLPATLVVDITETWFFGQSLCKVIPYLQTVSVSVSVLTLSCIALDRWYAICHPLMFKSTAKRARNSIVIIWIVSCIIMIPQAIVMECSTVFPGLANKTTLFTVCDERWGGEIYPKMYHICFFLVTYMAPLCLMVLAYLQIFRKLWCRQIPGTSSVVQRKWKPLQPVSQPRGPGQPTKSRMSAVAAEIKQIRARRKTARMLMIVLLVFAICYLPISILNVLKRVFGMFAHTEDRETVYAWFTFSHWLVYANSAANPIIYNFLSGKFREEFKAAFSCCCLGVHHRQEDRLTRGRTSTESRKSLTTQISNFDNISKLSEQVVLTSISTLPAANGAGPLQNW
Test: hOX2R IPone assay (orexin receptor agonism)
Details: orexin receptor agonist, IPone readout; read-out: hOX2R_IPone EC50
pEC50: −log10 of the molar value.
ATTRIBUTE MEASURED: pEC50

> print(dat)
                                   compound  recorded.value
1  C[C@@H]1c2cc(c(F)cn2)-c2nc(c3nccn3n2)OCCCCCC(CCC(F)F)NC(=O)N1C1CC1 (some centres unmarked)            8.62

a = CCN1C(=O)N[C@@H](CCC(F)(F)F)CCCCCOc2cc(cc3ccnn23)-c2nc(cnc2OC)C1C (single isomer, unassigned) [Example 80B]
b = CCN1Cc2cccc(c2)-c2cn3ccnc3c(n2)OCCCC[C@H](CCC(F)(F)F)NC1=O
c = CCN1C(=O)N[C@@H](C)/C=C/CC2(CCOCC2)COc2nc(cn3ccnc23)-c2cc(ncc2OC)[C@H]1C
d = CCN1C(=O)NC(c2nc(C)cs2)CCCCCOc2nc(cn3ccnc23)-c2cc(ncc2OC)[C@H]1C (some centres unmarked)
Ascending sort, pEC50. Give the order by naming the labels one after another as requested.
c, b, a, d
(c: 6.12, b: 7.30, a: 8.54, d: 9.05)

I = CCN1C(=O)NC(CCC#N)CCCCCOc2nc(cn3ccnc23)-c2cc(ncc2OC)[C@H]1C (some centres unmarked)
II = CCN1C(=O)N[C@@H](CCC(F)(F)F)COCCCOc2nc(cn3ncnc23)-c2cc(ncc2OC)[C@H]1C
Compare reported pEC50 values for I and II . Which is lower? Refer to your chosen entry by its label in the reply.
II
